experimental.details: Displacement of [3H]PAF from rabbit PAF receptor
Set-up: species or system Oryctolagus cuniculus
recorded.metric: IC50 (nM)

O=C(/C=C/C(O)Cc1ccccc1)CCc1ccccc1 (stereo not drawn)    1300

(I) O=C(/C=C/CCc1ccccc1)CCc1ccccc1
(II) COC(CCc1ccccc1)CC(=O)CCc1ccccc1 (stereo not drawn)
Qu. Of I versus II , which is the one with smaller reported IC50? Choose, then provide that item's label.
Ans. II
